Hello, the source for this data is PubChem BioAssay (NCI), in case you need it.

System: OVCAR-3 ovarian
experiment-summary: NCI-60 one-dose screen, 48 h
measurement-conditions: 10 µM unless noted
Procedure: Growth inhibition of the OVCAR-3 human tumor cell line is measured as a screen for anti-cancer activity. Cells are grown in 96 well plates and exposed to the test compound for 48 hours. Compounds are tested at a single concentration, which is 10^-5 M for most compounds. The reported endpoint is percent growth (GI% or GIPRCNT), where numbers from 0 - 100% represent growth inhibition, and numbers from -100% - 0 represent cell death. For example, a value of 40 represents 60% growth inhibition. […]
About 83,000 compounds went through this panel and 20% of them were active in at least one assay; those are over-represented in the sample as a whole. Calls of active or inactive are those of the source. Rule for the calls: active = growth percent below 10; inactive = the rest.
Select the correct class. Options are Yes for active, No for inactive and nothing else.

{"columns": ["molecule", "class"],
 "data": [
  ["COc1ccc(Oc2nc(Nc3ccc(N4CCCCC4)nc3)ncc2NC(=O)c2cc(OC)cc(OC)c2)cc1", "Yes"],
  ["CS(=O)(=O)c1ccc(N/N=C/c2c(-c3ccc(S(C)(=O)=O)cc3)[nH]c3ccc(F)cc23)cc1", "No"],
  ["Cc1nn(-c2ccccc2)c2c1C(c1ccc([N+](=O)[O-])cc1)C(C#N)=C(N)O2 (centres undefined)", "No"]
]}

Let's switch to this molecule now.
-- ask Call for entry Cc1ccc(NC(=O)C(Cl)Cl)cc1 :
-- reply No
